Source: patent US20060122191A1

tested-target: 5-HT1A (Rattus norvegicus)
Construct: from tissue
Sequence (P19327 whole entry): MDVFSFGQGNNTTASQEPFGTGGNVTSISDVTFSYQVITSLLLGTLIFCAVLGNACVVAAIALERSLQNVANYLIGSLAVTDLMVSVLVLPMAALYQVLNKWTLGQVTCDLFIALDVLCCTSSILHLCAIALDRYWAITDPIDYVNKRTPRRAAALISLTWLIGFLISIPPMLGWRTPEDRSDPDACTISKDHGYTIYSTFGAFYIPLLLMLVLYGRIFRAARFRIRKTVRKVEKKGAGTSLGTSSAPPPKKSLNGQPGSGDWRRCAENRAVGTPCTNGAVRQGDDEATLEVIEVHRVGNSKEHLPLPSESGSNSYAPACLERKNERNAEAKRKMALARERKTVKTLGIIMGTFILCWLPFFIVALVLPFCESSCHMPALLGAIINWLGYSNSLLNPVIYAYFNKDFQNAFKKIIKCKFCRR
experiment-summary: 5-HT1A receptor binding
study-conditions: test system per Cossery et al. 1987; read-out: receptor binding constant 5-HT1A
From the text: In-vitro evidence of interaction with the above-mentioned receptors can be provided, for example, as described in the following references: • 5-HT1A: Cossery J. M., Gozlan H., Spampinato U., Perdicakis C., Guillaumet G., Pichat L., Hamon M., 1987. […] As illustrative of two compounds of the formula I, receptor binding constants determined by the test systems described at the outset are indicated below: […]

query-smiles	Ki (nM)
N#Cc1ccc2[nH]cc(CCN3CCN(c4cccc5nsnc45)CC3)c2c1	110
